tested on: human B2M; assay: CRISPR/Cas9-mediated deletion of B2M in HEK293 (lipofection, FACS); format: cell-based; details: lipofection of tracrRNA, gRNA and Cas9 mRNA; FACS after 72 h
METRIC: B2M knockout efficiency in HEK293

11-HEYJA000008: gRNA targeting human B2M; targeting domain SEQ ID NO: 118; sgRNA SEQ ID NO: 169 (nucleic acid, listed as RNA, chemistry not given here) guide: CCACCUCUUGAUGGGGCUAGGUUUUAGAGCUAGAAAUAGCAAGUUAAAAUAAGGCUAGUCCGUUAUCAACUUGAAAAAGUGGCACCGAGUCGGUGCUUUU: 3%
5-CR004366: gRNA targeting human B2M; targeting domain SEQ ID NO: 112; sgRNA SEQ ID NO: 163; from Dharmacon (nucleic acid, listed as RNA, chemistry not given here, gRNA targeting human B2M; from Dharmacon) guide: CUGAAUCUUUGGAGUACCUGGUUUUAGAGCUAGAAAUAGCAAGUUAAAAUAAGGCUAGUCCGUUAUCAACUUGAAAAAGUGGCACCGAGUCGGUGCUUUU: 33%
10-HEYJA000007: gRNA targeting human B2M; targeting domain SEQ ID NO: 117; sgRNA SEQ ID NO: 168 (nucleic acid, listed as RNA, chemistry not given here) guide: AGUCACAUGGUUCACACGGCGUUUUAGAGCUAGAAAUAGCAAGUUAAAAUAAGGCUAGUCCGUUAUCAACUUGAAAAAGUGGCACCGAGUCGGUGCUUUU: 13%
1-CR004366: gRNA targeting human B2M; targeting domain SEQ ID NO: 108; sgRNA SEQ ID NO: 120; from Dharmacon (nucleic acid, listed as RNA, chemistry not given here, gRNA targeting human B2M; from Dharmacon) guide: GAGUAGCGCGAGCACAGCUAGUUUUAGAGCUAGAAAUAGCAAGUUAAAAUAAGGCUAGUCCGUUAUCAACUUGAAAAAGUGGCACCGAGUCGGUGCUUUU: 70%

Lab note: each molecule below needs its B2M knockout efficiency in HEK293 filled in.
1. 7-HEYJA000003: gRNA targeting human B2M; targeting domain SEQ ID NO: 114; sgRNA SEQ ID NO: 165 (nucleic acid, listed as RNA, chemistry not given here) guide: CUCGCGCUACUCUCUCUUUCGUUUUAGAGCUAGAAAUAGCAAGUUAAAAUAAGGCUAGUCCGUUAUCAACUUGAAAAAGUGGCACCGAGUCGGUGCUUUU
2. 6-HEYJA000001: gRNA targeting human B2M; targeting domain SEQ ID NO: 113; sgRNA SEQ ID NO: 164 (nucleic acid, listed as RNA, chemistry not given here) guide: GGCCGAGAUGUCUCGCUCCGGUUUUAGAGCUAGAAAUAGCAAGUUAAAAUAAGGCUAGUCCGUUAUCAACUUGAAAAAGUGGCACCGAGUCGGUGCUUUU

1: 37%; 2: 47%
